For each entry below, report its pIC50 value.
target: hPAD4 enzyme (Homo sapiens)
assay.text: RFMS Assay 2 (rapid-fire mass spectrum PAD4 inhibition assay, peptide substrate)
Type: biochemical
conditions.used: 35 nM recombinant human PAD4, substrate TSTGGRQGSHH, room temperature for 30 minutes; read-out: human PAD4 (hPAD4) IC50, RFMS Assay 2
pIC50: −log10 of the molar value.

Solved cases (3 shown):
Req: Data request, read-out pIC50, for Cn1c(-c2cc3cccc(OCCc4cnoc4)c3n2CC2CC2)nc2cc3c(nc21)CCN(C[C@H](N)CF)C3=O [Example 39]
Resp: 7.00 to 7.96

Req: Consider the compound shown here: COc1cccc2cc(-c3nc4cc5c(nc4n3C)CCN(C[C@H](N)CF)C5=O)n(Cc3nc(C)co3)c12 [Example 13] What is its recorded pIC50?
Resp: 6.00 to 6.30

Req: // query pIC50 value for entry Cn1c(-c2cc3cccc(OC(F)Cn4ccnc4)c3n2CC2CC2)nc2cc3c(nc21)CCN(C[C@H](N)CF)C3=O (single isomer, unassigned) [Example 74a]
Resp: 7.00 to 7.96

Provide pIC50 values for the following items, in order.
1. COc1cccc2cc(-c3nc4cc5c(nc4n3C)CCN(C[C@H](N)CF)C5=O)n(Cc3ccno3)c12 [Example 7]
2. Cn1c(-c2cc3cccc(OC(F)Cn4cncc4F)c3n2CC2CC2)nc2cc3c(nc21)CCN(C[C@H](N)CF)C3=O (single isomer, unassigned) [Example 75a]
3. COc1cccc2cc(-c3nc4cc5c(nc4n3C)CCN(C[C@H](N)CF)C5=O)n(Cc3cc(C)no3)c12 [Example 12]
4. Cn1c(-c2cc3cccc(OCC4CC(=O)NC4(C)C)c3n2CC2CC2)nc2cc3c(nc21)CCN(C[C@H](N)CF)C3=O (stereo partly shown) [Example 35]

Resp:
6.30 to 7.00
7.00 to 7.96
6.30 to 7.00
6.00 to 6.30

###

target: hPAD4 enzyme (Homo sapiens, UniProt Q9UM07)
Sequence (Q9UM07 whole entry): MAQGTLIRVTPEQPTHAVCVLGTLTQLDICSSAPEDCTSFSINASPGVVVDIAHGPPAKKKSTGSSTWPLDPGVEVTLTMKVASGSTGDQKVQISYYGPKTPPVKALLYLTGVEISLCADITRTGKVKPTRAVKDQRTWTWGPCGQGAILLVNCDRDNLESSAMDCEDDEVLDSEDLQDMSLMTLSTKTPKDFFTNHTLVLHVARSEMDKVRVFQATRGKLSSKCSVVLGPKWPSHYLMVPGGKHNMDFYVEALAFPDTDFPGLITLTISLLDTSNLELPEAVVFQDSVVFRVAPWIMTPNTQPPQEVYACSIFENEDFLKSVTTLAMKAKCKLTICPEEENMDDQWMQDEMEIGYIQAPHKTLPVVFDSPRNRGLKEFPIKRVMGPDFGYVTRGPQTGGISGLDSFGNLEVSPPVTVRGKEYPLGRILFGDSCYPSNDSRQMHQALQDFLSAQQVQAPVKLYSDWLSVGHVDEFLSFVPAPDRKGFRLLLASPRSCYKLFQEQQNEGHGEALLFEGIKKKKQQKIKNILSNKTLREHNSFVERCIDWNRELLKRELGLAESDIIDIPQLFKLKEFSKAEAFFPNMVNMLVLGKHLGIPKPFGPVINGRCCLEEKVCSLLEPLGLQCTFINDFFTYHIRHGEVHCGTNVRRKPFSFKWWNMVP
assay.text: RFMS Assay 1 (rapid-fire mass spectrum PAD4 inhibition assay, BAEE substrate)
Format: biochemical
conditions.used: 5 nM hPAD4 enzyme, 250 μM BAEE, 30 mins compound and enzyme preincubation at 37° C., 90 min enzyme/substrate reaction
pIC50: −log10 of the molar value.
outcome.measure: pIC50

Req: # returns recorded pIC50 (system: hPAD4 enzyme (Homo sapiens, UniProt Q9UM07)) for Cn1c(-c2cc3cccc(OCCn4cnc(F)c4)c3n2CC2CC2)nc2cc3c(nc21)CCN(C[C@H](N)CF)C3=O
Resp: ≥ 8.00

Req: Item: COc1cccc2cc(-c3nc4cc5c(nc4n3C)CCN(C[C@@H](C)N)C5=O)n(Cc3ncco3)c12 Test system: hPAD4 enzyme (Homo sapiens, UniProt Q9UM07) Read-out: pIC50 Value: ?
Resp: 6.30 to 7.00

Req: Give recorded pIC50 with hPAD4 enzyme (Homo sapiens, UniProt Q9UM07) for the following compound: Cn1c(-c2cc3cccc(OC[C@@H]4CNC(=O)C4)c3n2CC2CC2)nc2cc3c(nc21)CCN(C[C@H](N)CF)C3=O
Resp: 7.00 to 7.96

Req: Please state recorded pIC50 (tested on hPAD4 enzyme (Homo sapiens, UniProt Q9UM07)) of C[C@@H](COc1cccc2cc(-c3nc4cc5c(nc4n3C)CCN(C[C@H](N)CF)C5=O)n(CC3CC3)c12)n1cncc1C#N
Resp: 6.30 to 7.00

# per-item lookup of pIC50; items listed below
1. COc1cccc2cc(-c3nc4cc5c(nc4n3C)CCN(C[C@H](N)CF)C5=O)n(Cc3nc(C)cs3)c12
2. COc1cccc2cc(-c3nc4cc5c(nc4n3C)CCN(C[C@H](N)CF)C5=O)n(Cc3cc(C)no3)c12
3. Cn1c(-c2cc3cccc(OC(F)Cn4cnc(F)c4)c3n2CC2CC2)nc2cc3c(nc21)CCN(C[C@H](N)CF)C3=O (single isomer, unassigned) [Example 73b]
4. Cn1c(-c2cc3cccc(OCCc4cn[nH]c4)c3n2CC2CC2)nc2cc3c(nc21)CCN(C[C@H](N)CF)C3=O

Resp:
7.00 to 7.96
6.30 to 7.00
≥ 8.00
≥ 8.00

Below is a list of compounds. For each, state its recorded pIC50.
1. Cc1cncn1CCOc1cccc2cc(-c3nc4cc5c(nc4n3C)CCN(C[C@H](N)CF)C5=O)n(CC3CC3)c12
2. CC(C(F)Oc1cccc2cc(-c3nc4cc5c(nc4n3C)CCN(C[C@H](N)CF)C5=O)n(CC3CC3)c12)n1ccnc1 (single isomer, unassigned) [Example 78a]
3. Cn1c(-c2cc3cccc(OC(C)(F)Cn4ccnc4)c3n2CC2CC2)nc2cc3c(nc21)CCN(C[C@H](N)CF)C3=O (single isomer, unassigned) [Example 76a]
4. COc1cccc2cc(-c3nc4cc5c(nc4n3C)CCN(C[C@H](N)CF)C5=O)n(Cc3ncco3)c12
5. [2H]C([2H])(Oc1cccc2cc(-c3nc4cc5c(nc4n3C)CCN(C[C@H](N)CF)C5=O)n(CC3CC3)c12)C([2H])([2H])n1ccnc1

Resp:
7.00 to 7.96
7.00 to 7.96
7.00 to 7.96
6.00 to 6.30
≥ 8.00

###

target: UniProt:Q9UM07
assay.text: RFMS Assay 1 (rapid-fire mass spectrum PAD4 inhibition assay, BAEE substrate)
Format: biochemical
conditions.used: 5 nM hPAD4 enzyme, 250 μM BAEE, 30 mins compound and enzyme preincubation at 37° C., 90 min enzyme/substrate reaction
pIC50: −log10 of the molar value.
For each of the compounds below, state its pIC50.

Req: Give its pIC50 value. Item: Cn1c(-c2cc3cccc(OC[C@H]4CNS(=O)(=O)C4)c3n2CC2CC2)nc2cc3c(nc21)CCN(C[C@H](N)CF)C3=O
Resp: 7.00 to 7.96

Provide reported pIC50 for each item, in the same order as listed.
1. C[C@H](Cn1cncc1F)Oc1cccc2cc(-c3nc4cc5c(nc4n3C)CCN(C[C@H](N)CF)C5=O)n(CC3CC3)c12
2. Cn1c(-c2cc3cccc(OC(F)Cn4cnc(F)c4)c3n2CC2CC2)nc2cc3c(nc21)CCN(C[C@H](N)CF)C3=O (single isomer, unassigned) [Example 73a]

Resp:
1. 7.00 to 7.96
2. ≥ 8.00

###

target: hPAD4 enzyme (Homo sapiens, UniProt Q9UM07)
assay.text: RFMS Assay 1 (rapid-fire mass spectrum PAD4 inhibition assay, BAEE substrate)
Type: biochemical
conditions.used: 5 nM hPAD4 enzyme, 250 μM BAEE, 30 mins compound and enzyme preincubation at 37° C., 90 min enzyme/substrate reaction
Method: Compounds were solubilized in 100% DMSO to achieve a 10 mM compound concentration. Compound stock solutions were stored at RT. A series of dilutions were prepared in DMSO and mixed 8 times with 20 μL mixing volume. Final top concentration of compound in the assay is 50 μM. […] MRM transition of product and internal standard were monitored at m/z 424.5 to 350.4 and m/z 293 to 247 respectively. […]
outcome.measure: IC50

Please review the entries below; each comes with its answer.
Req: # lookup: IC50 of Cn1c(-c2cc3cccnc3n2CC2CC2)nc2cc3c(nc21)CCN(C[C@H](N)CF)C3=O
Resp: 501 to 1000 nM

Req: So what does the record say about IC50 for CC(C(F)Oc1cccc2cc(-c3nc4cc5c(nc4n3C)CCN(C[C@H](N)CF)C5=O)n(CC3CC3)c12)n1ccnc1 (single isomer, unassigned) [Example 78b] ?
Resp: ≤ 10 nM

Here are 2 molecules. What values of IC50 were reported for them?
1. COc1cccc2cc(-c3nc4cc5c(nc4n3C)CCN(C[C@H](N)CF)C5=O)n(Cc3ncc(C)o3)c12
2. CC(=O)N1CCC(c2cccc3cc(-c4nc5cc6c(nc5n4C)CCN(C[C@H](N)CF)C6=O)n(CC4CC4)c23)CC1

Resp:
1. 101 to 500 nM
2. 101 to 500 nM

Please go through the list and note IC50 for each molecule.
1. COCCn1c(-c2nc3cc4c(nc3n2C)CCN(C[C@H](N)CF)C4=O)cc2cccc(OC)c21
2. Cc1nnc(CCOc2cccc3cc(-c4nc5cc6c(nc5n4C)CCN(C[C@H](N)CF)C6=O)n(CC4CC4)c23)o1
3. Cn1c(-c2cc3cccc(OCCn4ccnc4)c3n2CC2CC2)nc2cc3c(nc21)CCN(C[C@H](N)CF)C3=O
4. COc1cccc2cc(-c3nc4cc5c(nc4n3C)CCN(C[C@H]3COCCN3)C5=O)n(CCOC(F)F)c12

Resp:
> 1000 nM
11 to 100 nM
≤ 10 nM
501 to 1000 nM

Provide IC50 values for the following items, in order.
1. COc1cccc2cc(-c3nc4cc5c(nc4n3C)CCN(C[C@H]3COCCN3)C5=O)n(CC3CC3)c12
2. Cn1c(-c2cc3cccc(OCCn4cnc(Cl)n4)c3n2CC2CC2)nc2cc3c(nc21)CCN(C[C@H](N)CF)C3=O

Resp:
501 to 1000 nM
11 to 100 nM

Return reported IC50 values for all items listed beneath this line.
1. Cc1ncoc1CCOc1cccc2cc(-c3nc4cc5c(nc4n3C)CCN(C[C@H](N)CF)C5=O)n(CC3CC3)c12
2. Cn1c(-c2cc3cccc(OC(F)Cn4cncc4F)c3n2CC2CC2)nc2cc3c(nc21)CCN(C[C@H](N)CF)C3=O (single isomer, unassigned) [Example 75b]
3. C[C@H](Cn1cnc(F)c1)Oc1cccc2cc(-c3nc4cc5c(nc4n3C)CCN(C[C@H](N)CF)C5=O)n(CC3CC3)c12
4. CN1C[C@H](COc2cccc3cc(-c4nc5cc6c(nc5n4C)CCN(C[C@H](N)CF)C6=O)n(CC4CC4)c23)CS1(=O)=O

Resp:
1: 11 to 100 nM; 2: ≤ 10 nM; 3: ≤ 10 nM; 4: 101 to 500 nM

Source listed as patent US20250353848A1.
